Biological target: T1, human IL-2Rβ (human, UniProt P14784 27-240, limits assumed)
T1 construct: Recombinant protein, coated (ELISA) or immobilised on CM5 (SPR); also called hu IL-2R; interleukin 2 receptor β-chain
T1 sequence: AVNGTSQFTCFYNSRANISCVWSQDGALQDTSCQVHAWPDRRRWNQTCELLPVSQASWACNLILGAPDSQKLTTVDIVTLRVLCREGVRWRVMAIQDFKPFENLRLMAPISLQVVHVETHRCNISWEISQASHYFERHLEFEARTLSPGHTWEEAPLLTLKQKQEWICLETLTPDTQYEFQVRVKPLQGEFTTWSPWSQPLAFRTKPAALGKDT
Experiment: SPR (Biacore), P.E. off-rate ranking
Each entry below carries its recorded koff.
Write the value in s⁻¹ as a bare number.

{"columns": ["Binder", "Readout Unit", "koff"],
 "data": [
  ["FJ1427_P035MP03E08 (VHH, soluble VHH in periplasmic extract; also called clone nr) VHH: QVQLVESGGGLVQAGGSLRLSCAAAGRAIENYPVGWFRRAPGKEREFVAAITWISGSTLYADSVKGRFTISRDNAKNTVYLQMSSLKPEDTALYYCAAALKTITRGQNDYSYWGQGTQVTVSS", "s⁻¹", 0.000149]
]}

Item under review: FJ1427_P035MP06C01 (VHH, soluble VHH in periplasmic extract; also called clone nr) VHH: QVQLVESGGGLVQAGGSLRLSCAASGDVFVRYTMAWFRQAPGKEREFVASVTDSGRTTDYVDSVKGRFTVSRDNAKNTVYLQMNALKPEDTAVYYCAANTDYFQIKSLDLNTWGQGTQVTVSS . Reported koff?
0.000544
